target-under-test: T1, human LILRB2 expressed on cells (human, UniProt Q8N423 22-597)
T1 construct: CHO-s cells over-expressing full-length human LILRB2, or primary human macrophages and dendritic cells; also called hLILRB2-CHO-s; hLILRB2+ CHO-s
T1 sequence (Q8N423 other isoform, or with tags, fused parts or gaps limits assumed): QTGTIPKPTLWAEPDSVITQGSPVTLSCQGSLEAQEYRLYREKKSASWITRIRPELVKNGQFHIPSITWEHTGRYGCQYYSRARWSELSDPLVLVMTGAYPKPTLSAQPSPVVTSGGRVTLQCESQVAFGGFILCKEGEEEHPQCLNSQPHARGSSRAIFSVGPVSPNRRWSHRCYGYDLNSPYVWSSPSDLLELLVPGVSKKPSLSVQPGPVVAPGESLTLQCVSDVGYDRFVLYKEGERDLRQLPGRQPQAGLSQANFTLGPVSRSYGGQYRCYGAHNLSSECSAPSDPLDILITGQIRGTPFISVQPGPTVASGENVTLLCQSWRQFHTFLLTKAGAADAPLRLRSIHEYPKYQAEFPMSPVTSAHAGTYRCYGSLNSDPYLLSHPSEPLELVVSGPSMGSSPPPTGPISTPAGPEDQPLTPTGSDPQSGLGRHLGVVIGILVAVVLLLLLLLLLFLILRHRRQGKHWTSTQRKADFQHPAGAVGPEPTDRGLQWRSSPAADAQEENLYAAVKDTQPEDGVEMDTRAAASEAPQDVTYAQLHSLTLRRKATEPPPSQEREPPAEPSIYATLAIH
procedure-details: flow cytometry, binding to hLILRB2 CHOs
# reported EC50; entries follow
Output should be the measured figure followed by the unit it is expressed in.

[[record]]
binder = "J-19.h3 (antibody, human IgG4 S228P, kappa, V domains shown, Humanized, human IgG4 backbone) VH: QVTLKESGPSLVKPTQTLTLTCTFSGFSLNTYAMGVSWIRQPPGKALEWLASIWWNGNKYNNPSLKSRLTITKDTSKNQVVLKVTNMDPADTATYYCAHSRIIRFTDYVMDAWGQGTTVTVSS VL: DIVMTQSPSSLSASVGDTVTITCRASEDIYNDLAWYQQKPGKAPQLLLYNANSLHTGVPSRFSGSGSGTDYTLTISTLQPEDFATYYCQQYYDYPLTFGPGTKVHIKR"
data_value = "0.0325 nM"

[[record]]
binder = "J-19.h2 (antibody, human IgG4 S228P, kappa, V domains shown, Humanized, human IgG4 backbone) VH: QITLKESGPTLVKPTQTLTLTCTFSGFSLNTYAMGVSWIRQPPGKALEWLASIWWNGNKYNNPSLKSRLTVTKDTSKNQVVLTMTNMDPVDTATYYCAHSRIIRFTDYVMDAWGQGTLVTVSS VL: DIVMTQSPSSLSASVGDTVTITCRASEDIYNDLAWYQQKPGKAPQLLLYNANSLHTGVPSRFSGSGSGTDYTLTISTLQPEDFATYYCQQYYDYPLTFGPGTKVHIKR"
data_value = "0.447 nM"

[[record]]
binder = "J-19.h4 (antibody, human IgG4 S228P, kappa, V domains shown, Humanized, human IgG4 backbone) VH: QVTLKESGPALVKPTHTLTLTCTFSGFSLNTYAMGVSWIRQPPGKALEWLASIWWNGNKYNNPSLKSRLTISKDTSKNQVVLTMTNMDPEDTATFYCAHSRIIRFTDYVMDAWGRGTTVTVSS VL: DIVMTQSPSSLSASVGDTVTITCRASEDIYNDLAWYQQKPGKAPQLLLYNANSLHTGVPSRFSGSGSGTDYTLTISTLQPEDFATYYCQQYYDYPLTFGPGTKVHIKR"
data_value = "0.00175 nM"


API: the following record is the query input.
Lab book: EC50 of J-19.h1 (antibody, human IgG4 S228P, kappa, V domains shown, Humanized, human IgG4 backbone) VH: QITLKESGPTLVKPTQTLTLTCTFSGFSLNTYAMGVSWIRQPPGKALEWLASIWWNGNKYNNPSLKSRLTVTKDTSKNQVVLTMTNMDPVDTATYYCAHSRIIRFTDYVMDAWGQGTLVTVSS VL: DIQMTQSPSSLSTSVGDRVTITCRASEDIYNDLAWYQQKPGKAPKLLIYNANSLHTGVASRFSGSGSGTDFTFTISSLQPEDVATYFCQQYYDYPLTFGQGTKLEIKR noted as 0.032 nM
